# target_of_assay: GST-JAK1 enzyme (Homo sapiens, UniProt P23458)
# Sequence (P23458 whole entry): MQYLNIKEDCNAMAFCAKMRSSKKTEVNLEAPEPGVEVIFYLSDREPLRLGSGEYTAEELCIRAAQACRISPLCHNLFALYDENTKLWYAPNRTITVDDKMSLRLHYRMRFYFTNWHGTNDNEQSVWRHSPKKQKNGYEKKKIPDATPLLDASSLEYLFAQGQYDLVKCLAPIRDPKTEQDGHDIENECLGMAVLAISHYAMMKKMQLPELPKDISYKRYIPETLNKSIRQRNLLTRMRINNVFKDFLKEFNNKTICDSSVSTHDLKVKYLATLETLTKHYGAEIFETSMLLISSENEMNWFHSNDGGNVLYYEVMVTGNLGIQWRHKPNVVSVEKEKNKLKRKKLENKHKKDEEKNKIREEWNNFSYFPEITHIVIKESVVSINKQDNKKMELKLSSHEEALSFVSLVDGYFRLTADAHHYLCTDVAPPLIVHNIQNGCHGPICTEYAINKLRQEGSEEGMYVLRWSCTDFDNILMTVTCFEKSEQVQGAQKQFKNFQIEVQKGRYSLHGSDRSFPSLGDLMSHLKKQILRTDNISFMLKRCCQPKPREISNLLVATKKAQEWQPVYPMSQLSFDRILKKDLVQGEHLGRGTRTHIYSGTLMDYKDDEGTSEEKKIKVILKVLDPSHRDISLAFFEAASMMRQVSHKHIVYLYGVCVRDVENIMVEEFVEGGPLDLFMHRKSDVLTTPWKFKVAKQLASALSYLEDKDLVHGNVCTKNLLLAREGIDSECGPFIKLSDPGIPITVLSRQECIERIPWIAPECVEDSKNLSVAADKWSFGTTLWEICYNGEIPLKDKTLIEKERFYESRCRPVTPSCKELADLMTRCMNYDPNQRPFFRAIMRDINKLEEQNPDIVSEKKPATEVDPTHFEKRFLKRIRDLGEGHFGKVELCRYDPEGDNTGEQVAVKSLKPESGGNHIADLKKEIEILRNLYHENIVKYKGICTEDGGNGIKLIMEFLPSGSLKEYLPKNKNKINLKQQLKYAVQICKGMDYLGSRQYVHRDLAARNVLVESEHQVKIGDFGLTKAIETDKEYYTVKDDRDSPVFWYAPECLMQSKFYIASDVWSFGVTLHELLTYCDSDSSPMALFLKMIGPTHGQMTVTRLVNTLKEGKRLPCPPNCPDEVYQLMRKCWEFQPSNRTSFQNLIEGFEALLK
pIC50: −log10 of the molar value.
Quick rule for you: pIC50 at 7 or higher means MET, lower means NOT MET.

compound	target_of_assay	assigned_label
CC1CCN(c2cc3c(N[C@H](C)C(C)(C)F)c(C(N)=O)cnn3c2)C1=O (mixture of isomers) [Example 134]	GST-JAK1 enzyme (Homo sapiens, UniProt P23458)	MET
C[C@@H](Nc1c(C(N)=O)cnn2cc(-c3ccccc3)cc12)C(C)(C)C(N)=O [Example 194]	GST-JAK1 enzyme (Homo sapiens, UniProt P23458)	MET
C[C@@H](O)[C@@H](COP(=O)(O)O)Nc1c(C(N)=O)cnn2cc(-c3ccccc3)cc12 [Example 240, phosphate, disodium]	GST-JAK1 enzyme (Homo sapiens, UniProt P23458)	NOT MET
C[C@@H](Nc1c(C(N)=O)cnn2cc(-c3ccc(N)nc3)cc12)C1CC1 [Example 200]	GST-JAK1 enzyme (Homo sapiens, UniProt P23458)	MET
C[C@@H](Nc1c(C(N)=O)cnn2cc(N3CCNC3=O)cc12)C(C)(C)C [Example 29]	GST-JAK1 enzyme (Homo sapiens, UniProt P23458)	MET

Now turn to the next compound.
Is the recorded value of pIC50 equal to or greater than 7 for this compound? CCCNc1c(C(N)=O)cnn2cc(-c3ccccc3)cc12 [Example 183]
MET

###

Below are molecules with their pIC50 as measured on GST-JAK1 enzyme (Homo sapiens).
Friendly reminder that pIC50 comes from taking -log10 of the concentration in mol/L.

molecule	pIC50
C[C@@H](Nc1c(C(N)=O)cnn2cc(-c3cnc(NCCN(C)C)nc3)cc12)C1CC1 [Example 205]	6.96
NC(=O)c1cnn2cc(-c3ccccc3)cc2c1N[C@H](C(N)=O)c1ccccc1 [Example 125]	6.59
C[C@@H](O)[C@@H](CO)Nc1c(C(N)=O)cnn2cc(-c3ccccc3)cc12 [Example 196]	8.24

Bench note, GST-JAK1 enzyme (Homo sapiens): entry CC(Nc1c(C(N)=O)cnn2cc(-c3ccncc3)cc12)c1cc(F)ccc1F (racemic) [Example 181] , its pIC50 = 6.97

Bench note, GST-JAK1 enzyme (Homo sapiens): entry CC[C@@H](c1nc(C(N)=O)co1)[C@@H](C)Nc1c(C(N)=O)cnn2cc(-c3ccc(OC)nc3)cc12 [Example 224] , its pIC50 = 9.30

Bench note, GST-JAK1 enzyme (Homo sapiens): entry C[C@@H](Nc1c(C(N)=O)cnn2cc(-c3cnc(N)nc3)cc12)C1CC1 [Example 192] , its pIC50 = 7.89

###

# target_of_assay: JAK3 enzyme (Homo sapiens)
# Sequence (P52333 whole entry, species assumed): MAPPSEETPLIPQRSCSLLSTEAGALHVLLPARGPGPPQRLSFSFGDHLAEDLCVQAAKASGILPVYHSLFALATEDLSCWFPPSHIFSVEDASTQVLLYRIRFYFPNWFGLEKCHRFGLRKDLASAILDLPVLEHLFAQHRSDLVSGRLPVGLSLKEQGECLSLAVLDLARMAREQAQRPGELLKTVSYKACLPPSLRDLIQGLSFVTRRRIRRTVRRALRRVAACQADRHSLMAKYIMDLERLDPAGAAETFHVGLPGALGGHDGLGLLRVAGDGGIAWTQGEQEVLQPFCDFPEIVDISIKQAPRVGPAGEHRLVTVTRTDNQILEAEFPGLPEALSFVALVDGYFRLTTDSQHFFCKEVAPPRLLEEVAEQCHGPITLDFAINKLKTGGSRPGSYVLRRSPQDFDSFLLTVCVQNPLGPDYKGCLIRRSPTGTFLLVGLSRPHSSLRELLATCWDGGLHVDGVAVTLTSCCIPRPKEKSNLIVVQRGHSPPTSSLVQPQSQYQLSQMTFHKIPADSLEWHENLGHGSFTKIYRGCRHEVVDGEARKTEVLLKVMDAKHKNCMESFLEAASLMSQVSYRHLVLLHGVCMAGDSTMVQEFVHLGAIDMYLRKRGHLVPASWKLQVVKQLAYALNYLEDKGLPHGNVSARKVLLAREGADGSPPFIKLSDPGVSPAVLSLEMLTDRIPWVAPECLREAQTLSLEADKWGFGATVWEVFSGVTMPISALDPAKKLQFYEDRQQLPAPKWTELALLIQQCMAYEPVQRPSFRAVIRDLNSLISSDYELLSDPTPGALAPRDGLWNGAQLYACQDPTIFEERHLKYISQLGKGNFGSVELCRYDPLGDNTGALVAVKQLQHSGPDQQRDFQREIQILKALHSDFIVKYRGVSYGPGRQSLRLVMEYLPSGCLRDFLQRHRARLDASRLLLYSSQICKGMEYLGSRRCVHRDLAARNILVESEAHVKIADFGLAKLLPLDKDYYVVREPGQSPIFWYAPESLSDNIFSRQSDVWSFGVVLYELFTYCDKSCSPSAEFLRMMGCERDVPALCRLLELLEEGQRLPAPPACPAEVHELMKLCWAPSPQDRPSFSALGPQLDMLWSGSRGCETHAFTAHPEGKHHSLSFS
measured_parameter: IC50
Respond with a number, then the unit of measure.

Use the examples below as a reference point.
compound	target_of_assay	IC50
C[C@@H](Nc1c(C(N)=O)cnn2cc(-c3nnc(N4CCN(C)CC4)o3)cc12)C1(C)CC1	JAK3 enzyme (Homo sapiens)	2.3 nM
CC(Nc1c(C(N)=O)cnn2cc(-c3ccccc3)cc12)C(C)(C)C(N)=O (racemic)	JAK3 enzyme (Homo sapiens)	1.8 nM
C[C@@H](O)[C@@H](CO)Nc1c(C(N)=O)cnn2cc(-c3ccccc3)cc12	JAK3 enzyme (Homo sapiens)	1.3 nM
C[C@@H](Nc1c(C(N)=O)cnn2cc(-c3cnc(N)nc3)cc12)C1CC1	JAK3 enzyme (Homo sapiens)	1.7 nM
CC(C)[C@H]1COC(=O)N1c1cc2c(N[C@H](C)C(C)(C)C)c(C(N)=O)cnn2c1	JAK3 enzyme (Homo sapiens)	109 nM
C[C@@H](Nc1c(C(N)=O)cnn2cc(-c3cnc(NCCN(C)C)nc3)cc12)C1CC1	JAK3 enzyme (Homo sapiens)	7.9 nM
C[C@@H](Nc1c(C(N)=O)cnn2cc(N3CCOC3=O)cc12)C(C)(C)C	JAK3 enzyme (Homo sapiens)	0.7 nM

Now turn to the next compound.
Bench note, JAK3 enzyme (Homo sapiens): entry `C[C@@H](Nc1c(C(N)=O)cnn2cc(-c3cccc(C#N)c3)cc12)C(C)(C)F` , its IC50 = 0.9 nM
